# System: P. acnes (ATCC 6919)
# assay.notes: Minimal bactericidal concentration (MBC) against P. acnes
# Format: cell-based, Propionibacterium acnes
# measurement.parameters: Cutibacterium acnes, ATCC6919; P. acnes 10^7 CFU/mL, in PBS, anaerobic conditions
parameter.measured: MBC (µg/mL)
One number for each entry, in µg/mL.

// below: answered compounds
compound: C/C(=C\CSCC(NC(=O)N(CC(=O)O)CC(=O)O)C(=O)O)CCCC(C)CCCC(C)CCCC(C)C (stereo not shown) [Compound G]
parameter.measured: MBC
numeric.readout: 1
--
compound: O=C(O)c1ccccc1O [Salicylic Acid, reference compound]
parameter.measured: MBC
numeric.readout: 2000

Okay, now this compound:
Which measured MBC value corresponds to C/C(=C\CSC[C@H](NC(=O)N(C)CC(=O)O)C(=O)O)CCCC(C)CCCC(C)CCCC(C)C (stereo partly shown) [Compound C] ?
22

----------
# Tested on: IL-23
# assay.notes: LPS/IFNγ-induced IL-23 on CD14+ monocytes
# Type: cell-based
# measurement.parameters: Homo sapiens, Monocyte, 50 μg/mL LPS + 5 μg/mL IFNγ, 24 hours, ELISA
Could you please report measured IC50 for the items listed next?
One number for each entry, in nM.

// below: answered compounds
compound: C/C(=C\CSC[C@H](NC(=O)N1CCC[C@H]1C(=O)O)C(=O)O)CCCC(C)CCCC(C)CCCC(C)C (some centres unmarked)
parameter.measured: IC50
numeric.readout: 11200
//
compound: C/C(=C\CSC[C@H](NC(=O)N(C)CC(=O)O)C(=O)O)CCCC(C)CCCC(C)CCCC(C)C (some centres unmarked)
parameter.measured: IC50
numeric.readout: 190
//
compound: C/C(=C\CSC[C@H](NC(=O)COCC(=O)O)C(=O)O)CCCC(C)CCCC(C)CCCC(C)C (some centres unmarked)
parameter.measured: IC50
numeric.readout: 50
//
compound: C/C(=C\CSCC(NC(=O)N(CC(=O)O)CC(=O)O)C(=O)O)CCCC(C)CCCC(C)CCCC(C)C (centres unmarked)
parameter.measured: IC50
numeric.readout: 3080

Okay, now this compound:
Which measured IC50 value corresponds to N#Cc1ccc(Oc2ccc3c(c2)COB3O)cc1 [AN2728, reference compound] ?
650

----------
# Tested on: IL-2
# assay.notes: PHA-induced IL-2 on PBMCs
# Format: cell-based
# measurement.parameters: Homo sapiens, PBMC, PHA-L 20 μg/mL, 24 hours, ELISA
# Procedure: Cryopreserved human Peripheral Blood Mononuclear cells (PBMCs) from healthy adult donors were obtained from Zen Bio, Inc (Cat No. SER-PBMC-F). […] IC50 values were determined by non-linear regression analysis using the four-parameter logistic equation.
Could you please report measured IC50 for the items listed next?

// below: answered compounds
compound: C/C(=C\CSC[C@H](NC(=O)N1CCC[C@H]1C(=O)O)C(=O)O)CCCC(C)CCCC(C)CCCC(C)C (some centres unmarked) [Compound E]
IC50: 4100 nM
--
compound: C/C(=C\CSCC(NC(=O)N(CC(=O)O)CC(=O)O)C(=O)O)CCCC(C)CCCC(C)CCCC(C)C (centres unmarked) [Compound G]
IC50: 3300 nM
--
compound: C/C(=C\CSC[C@H](NC(=O)N(C)CC(=O)O)C(=O)O)CCCC(C)CCCC(C)CCCC(C)C (some centres unmarked) [Compound C]
IC50: 900 nM
--
compound: C/C(=C\CSC[C@H](NC(=O)COCC(=O)O)C(=O)O)CCCC(C)CCCC(C)CCCC(C)C (some centres unmarked) [Compound T]
IC50: 100 nM

Okay, now this compound:
Which measured IC50 value corresponds to N#Cc1ccc(Oc2ccc3c(c2)COB3O)cc1 [AN2728, reference compound] ?
40 nM
